Target System: Fibroblast growth factor receptor 4 (Homo sapiens);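 further: reported figure is the averaged percent inhibition of FGFR4, from the GSK PKIS kinase screening panel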
Measurement Context: at 1 µM
Readout Type: inhibition (%)
The reply should contain only the number, in %.

| Compound | Unit | inhibition |
| --- | --- | --- |
| N#Cc1c(NC(=O)c2cccc3ccccc23)sc2c1CCCC2 | % | -0.35 |
| O=C1NC(=O)C(c2ccc(Cl)cc2)=C1Nc1ccc(Cl)c(C(=O)O)c1 | % | 1.95 |
| COc1cc2c(cc1Nc1nc(N3CCc4ccccc43)c3cc[nH]c3n1)N(C(=O)CN(C)C)CC2 | % | 0.78 |
| Fc1cccc(COc2ccc(Nc3ncnc4cc(-c5ccc[nH]5)sc34)cc2Cl)c1 | % | -3.31 |
| CCn1c(-c2nonc2N)nc2c(C#CC(C)(C)O)nc(CN3CCCC3)cc21 | % | 1.16 |

## Task Look up and report measured inhibition for this entry: `Cc1nnc(-c2ccc(C)c(-c3ccc(C(=O)Nc4cccc(C#N)c4)cc3)c2)o1`
## Result 0.88

## Task Look up and report measured inhibition for this entry: CC1=C(C(=O)Nc2ccc3[nH]ncc3c2)C(c2ccc(F)cc2)NC(=O)N1 (stereo not given)
## Result 7.73

## Task Look up and report measured inhibition for this entry: `O=C1NC(=O)C(c2ccccc2Cl)=C1Nc1cccc(O)c1`
## Result 0.13

## Task Look up and report measured inhibition for this entry: `Nc1nc(-c2ccc3c(c2)C(=Cc2cc(Br)c(O)c(Br)c2)C(=O)N3)cs1`
## Result 3.96

## Task Look up and report measured inhibition for this entry: `COc1ccc(-c2coc3ncnc(N)c23)cc1`
## Result 1.55

## Task Look up and report measured inhibition for this entry: `COc1cc2ncn(-c3cc(OCc4ccccc4Cl)c(C(N)=O)s3)c2cc1OC`
## Result 2.76

## Task Look up and report measured inhibition for this entry: `CCCN1CCC(Oc2cc(Nc3nc(Nc4cccc(F)c4C(N)=O)c4cc[nH]c4n3)c(OC)cc2Cl)CC1`
## Result 1.48
